System: Synechocystis sp. PCC 6803
assayText: Inhibition of Synechocystis sp. PCC6803 PDHC-E1 expressed in Escherichia coli BL-21 (DE3) at 100 uM using 6-DCIP and pyruvate incubated for 5 mins relative to untreated control
experimentalEndpoint: inhibition (%)

- smilesString: "Cc1ncc(Cn2nnc(COC(=O)c3cccc(Cl)c3)c2I)c(N)n1"
  valueReported: 98.7
- smilesString: "Cc1ncc(Cn2cc(COC(=O)c3ccc(Cl)cc3)nn2)c(N)n1"
  valueReported: 94.2
- smilesString: "Cc1ncc(Cn2cc(COC(=O)c3ccc([N+](=O)[O-])cc3)nn2)c(N)n1"
  valueReported: 95.7
- smilesString: "Cc1ncc(Cn2nnc(COC(=O)c3ccc(F)cc3)c2I)c(N)n1"
  valueReported: 95.4
- smilesString: "Cc1ncc(Cn2cc(COC(=O)c3cccc(Cl)c3)nn2)c(N)n1"
  valueReported: 93.2
- smilesString: "Cc1ncc(Cn2nnc(COC(=O)c3ccccc3)c2I)c(N)n1"
  valueReported: 96.5
- smilesString: "Cc1ncc(Cn2cc(COC(=O)c3ccc(F)cc3)nn2)c(N)n1"
  valueReported: 99.5
- smilesString: "Cc1ncc(Cn2cc(COC(=O)c3ccccc3)nn2)c(N)n1"
  valueReported: 95.5
- smilesString: "Cc1ccc(C(=O)OCc2cn(Cc3cnc(C)nc3N)nn2)cc1"
  valueReported: 95.3
- smilesString: "Cc1ncc(Cn2nnc(COC(=O)c3ccc(Cl)cc3)c2I)c(N)n1"
  valueReported: 95.6
- smilesString: "Cc1ncc(Cn2cc(COc3ccccc3)nn2)c(N)n1"
  valueReported: 19
- smilesString: "Cc1ncc(Cn2cc(COc3ccc(F)cc3)nn2)c(N)n1"
  valueReported: 16.2
- smilesString: "Cc1ccc(C(=O)OCc2nnn(Cc3cnc(C)nc3N)c2I)cc1"
  valueReported: 97.1
- smilesString: "Cc1ncc(Cn2nnc(COC(=O)c3ccc([N+](=O)[O-])cc3)c2I)c(N)n1"
  valueReported: 99.2
- smilesString: "Cc1ncc(Cn2cc(COc3ccc(Cl)cc3)nn2)c(N)n1"
  valueReported: 29.6
- smilesString: "Cc1ncc(Cn2cc(COC(=O)c3ccccc3Cl)nn2)c(N)n1"
  valueReported: 97.8
- smilesString: "Cc1ncc(Cn2cc(COc3ccc([N+](=O)[O-])cc3)nn2)c(N)n1"
  valueReported: 8.64
- smilesString: "Cc1ncc(Cn2nnc(COC(=O)c3ccccc3Cl)c2I)c(N)n1"
  valueReported: 98.9
